Tested on: PC-9 (KRAS wild type human lung adenocarcinoma cell line)
Test Description: KRAS 3D-Cell Proliferation Assay, PC-9 (Example 503)
Type: cell-based
Experimental Conditions: 168 h, PC-9 3D culture, 7 days, CellTiter-Glo 3D, read-out: Prolif PC9 3D ATP IC50
# reported IC50; entries follow
Return type: number; implicit unit µM.

A selection of reference data follows.
{"Compound": "Cc1c(F)c(N)cc(-c2nc3c4c(nc(OC[C@@H]5CC(F)(F)CN5C)nc4c2F)N2C[C@H]4CC[C@H](N4)[C@H]2[C@H](C)O3)c1C(F)(F)F", "IC50, µM": 7.53}
{"Compound": "Cn1ncc2ccc(F)c(-c3nc4c5c(nc(OC[C@@]67CCCN6C[C@H](F)C7)nc5c3F)N3C[C@H]5CC[C@H](N5)[C@H]3CO4)c21", "IC50, µM": 13.3}
{"Compound": "Cc1c(F)c(N)cc(-c2nc3c4c(nc(OCC56CCN5C[C@H](F)C6)nc4c2F)N2C[C@H]4CC[C@H](N4)[C@H]2[C@H](C)O3)c1C(F)(F)F (stereo partly shown)", "IC50, µM": 8.19}

Asked: // IC50 lookup, key: Cc1cc(-c2nc3c4c(nc(OC[C@@]56CCCN5C[C@H](F)C6)nc4c2F)N2C[C@H]4CC[C@H](N4)[C@H]2[C@H](C)O3)cc(N)c1F
Given back: 3.53

Asked: Lookup Nc1nc2c(-c3nc4c5c(ncnc5c3F)N3C[C@H]5CC[C@H](N5)[C@H]3CO4)ccc(F)c2s1
Given back: 12.8
